System: Candida albicans
Assay: Antifungal activity against Candida albicans ATCC 10231 after 24 to 72 hrs by broth microdilution method
Format: functional
Reported MIC by item:
ENDPOINT NAME: MIC (µg/mL)

chemical_structure=CCCCCc1cc[n+](CCCCCCCCCCCC[n+]2ccc(CCCCC)c(CCCCC)c2)cc1CCCCC.[Cl-].[Cl-] endpoint_name=MIC endpoint_result=1.86
chemical_structure=CC(C)CCc1cc[n+](CCCCCCCCCCCC[n+]2ccc(CCC(C)C)cc2)cc1.[Cl-].[Cl-] endpoint_name=MIC endpoint_result=2.96
chemical_structure=CCCCCc1cccc[n+]1CCCCCCCCCCCC[n+]1ccccc1CCCCC.[Cl-].[Cl-] endpoint_name=MIC endpoint_result=1.48
chemical_structure=C=CCCCc1cc[n+](CCCCCCCCCCCC[n+]2ccc(CCCC=C)cc2)cc1.[Cl-].[Cl-] endpoint_name=MIC endpoint_result=1.48
chemical_structure=CCCCCCc1cc[n+](CCCCCCCCCCCC[n+]2ccc(CCCCCC)cc2)cc1.[Cl-].[Cl-] endpoint_name=MIC endpoint_result=0.79
chemical_structure=[Cl-].[Cl-].c1ccc(CCCc2cc[n+](CCCCCCCCCCCC[n+]3ccc(CCCc4ccccc4)cc3)cc2)cc1 endpoint_name=MIC endpoint_result=1.74
chemical_structure=CCCCC(CCCC)c1cc[n+](CCCCCCCCCCCC[n+]2ccc(C(CCCC)CCCC)c(C)c2)cc1C.[Cl-].[Cl-] endpoint_name=MIC endpoint_result=1.86
chemical_structure=CCCCCc1cc[n+](CCCCCCCCCCCC[n+]2ccc(CCCCC)c(C)c2)cc1C.[Cl-].[Cl-] endpoint_name=MIC endpoint_result=1.58
chemical_structure=CC(C)(C)CCc1cc[n+](CCCCCCCCCCCC[n+]2ccc(CCC(C)(C)C)cc2)cc1.[Cl-].[Cl-] endpoint_name=MIC endpoint_result=3.2
chemical_structure=CCCCCc1cc[n+](CCCCCCCCCCCC[n+]2ccc(CCCCC)cc2)cc1.[Cl-].[Cl-] endpoint_name=MIC endpoint_result=1.48

* * *

System: Pichia kudriavzevii
Test: Antifungal activity against Candida krusei after 24 to 72 hrs by broth microdilution method
Assay type: functional
Reported MIC50 by item:
ENDPOINT NAME: MIC50 (µg/mL)

compound=C[C@@H](c1ncncc1F)[C@](O)(Cn1cncn1)c1ccc(F)cc1F test_target="Pichia kudriavzevii" result_unit=µg/mL endpoint_result=0.25
compound=OC(Cn1cncn1)(Cn1cncn1)c1ccc(F)cc1F test_target="Pichia kudriavzevii" result_unit=µg/mL endpoint_result=64
compound="CCC(C)n1ncn(-c2ccc(N3CCN(c4ccc(OCC5COC(Cn6cncn6)(c6ccc(Cl)cc6Cl)O5)cc4)CC3)cc2)c1=O (stereo unspecified)" test_target="Pichia kudriavzevii" result_unit=µg/mL endpoint_result=0.25
compound=CCCCCc1cc[n+](CCCCCCCCCCCC[n+]2ccc(CCCCC)cc2)cc1.[Cl-].[Cl-] test_target="Pichia kudriavzevii" result_unit=µg/mL endpoint_result=2.96
compound=C[C@@H]1[C@H](O)[C@@H](C)/C=C/C=C/C=C/C=C/C=C/C=C/C=C/[C@H](O[C@@H]2O[C@H](C)[C@@H](O)[C@H](N)[C@@H]2O)C[C@@H]2O[C@](O)(C[C@@H](O)C[C@@H](O)[C@H](O)CC[C@@H](O)C[C@@H](O)CC(=O)O[C@H]1C)C[C@H](O)[C@H]2C(=O)O test_target="Pichia kudriavzevii" result_unit=µg/mL endpoint_result=0.25
compound=C=CCCCc1cc[n+](CCCCCCCCCCCC[n+]2ccc(CCCC=C)cc2)cc1.[Cl-].[Cl-] test_target="Pichia kudriavzevii" result_unit=µg/mL endpoint_result=2.94

* * *

Test system: Cryptococcus gattii species complex
Assay: Antifungal activity against Cryptococcus gattii after 24 to 72 hrs by broth microdilution method
Assay type: functional, Cryptococcus bacillisporus
ENDPOINT NAME: MIC50 (µg/mL)

chemical_structure=CCCCCc1cc[n+](CCCCCCCCCCCC[n+]2ccc(CCCCC)c(C)c2)cc1C.[Cl-].[Cl-] result_unit=µg/mL endpoint_result=0.79
chemical_structure=OC(Cn1cncn1)(Cn1cncn1)c1ccc(F)cc1F result_unit=µg/mL endpoint_result=4
chemical_structure=C[C@@H]1[C@H](O)[C@@H](C)/C=C/C=C/C=C/C=C/C=C/C=C/C=C/[C@H](O[C@@H]2O[C@H](C)[C@@H](O)[C@H](N)[C@@H]2O)C[C@@H]2O[C@](O)(C[C@@H](O)C[C@@H](O)[C@H](O)CC[C@@H](O)C[C@@H](O)CC(=O)O[C@H]1C)C[C@H](O)[C@H]2C(=O)O result_unit=µg/mL endpoint_result=0.25
chemical_structure=CC[C@H](C)C[C@H](C)CCCCCCCCC(=O)N[C@H]1C[C@@H](O)[C@@H](NCCN)NC(=O)[C@@H]2[C@@H](O)CCN2C(=O)[C@H]([C@H](O)CCN)NC(=O)[C@H]([C@H](O)[C@@H](O)c2ccc(O)cc2)NC(=O)[C@@H]2C[C@@H](O)CN2C(=O)[C@H]([C@@H](C)O)NC1=O result_unit=µg/mL endpoint_result=8
chemical_structure=C[C@@H](c1ncncc1F)[C@](O)(Cn1cncn1)c1ccc(F)cc1F result_unit=µg/mL endpoint_result=0.06

* * *

Tested on: Cryptococcus neoformans
Assay: Antifungal activity against Cryptococcus neoformans after 24 to 72 hrs by broth microdilution method
Type: functional
Reported MIC90 by item:
ENDPOINT NAME: MIC90 (µg/mL)

chemical_structure=C=CCCCc1cc[n+](CCCCCCCCCCCC[n+]2ccc(CCCC=C)cc2)cc1.[Cl-].[Cl-] endpoint_result=5.87
chemical_structure=CCCCCc1cc[n+](CCCCCCCCCCCC[n+]2ccc(CCCCC)c(C)c2)cc1C.[Cl-].[Cl-] endpoint_result=3.11
chemical_structure=CCCCCc1cc[n+](CCCCCCCCCCCC[n+]2ccc(CCCCC)cc2)cc1.[Cl-].[Cl-] endpoint_result=5.91
chemical_structure=CC[C@H](C)C[C@H](C)CCCCCCCCC(=O)N[C@H]1C[C@@H](O)[C@@H](NCCN)NC(=O)[C@@H]2[C@@H](O)CCN2C(=O)[C@H]([C@H](O)CCN)NC(=O)[C@H]([C@H](O)[C@@H](O)c2ccc(O)cc2)NC(=O)[C@@H]2C[C@@H](O)CN2C(=O)[C@H]([C@@H](C)O)NC1=O endpoint_result=8

* * *

System: Cryptococcus gattii species complex
Assay: Antifungal activity against Cryptococcus gattii 05-200122 after 24 to 72 hrs by broth microdilution method
Assay type: functional, Cryptococcus bacillisporus
ENDPOINT NAME: MIC

chemical_structure=CC(C)(C)CCc1cc[n+](CCCCCCCCCCCC[n+]2ccc(CCC(C)(C)C)cc2)cc1.[Cl-].[Cl-] endpoint_name=MIC endpoint_result="1.58 µg/mL"
chemical_structure=CCCCCc1cc[n+](CCCCCCCCCCCC[n+]2ccc(CCCCC)cc2)cc1.[Cl-].[Cl-] endpoint_name=MIC endpoint_result="0.74 µg/mL"
chemical_structure=CCCCCCc1cc[n+](CCCCCCCCCCCC[n+]2ccc(CCCCCC)cc2)cc1.[Cl-].[Cl-] endpoint_name=MIC endpoint_result="0.79 µg/mL"
chemical_structure=C=CCCCc1cc[n+](CCCCCCCCCCCC[n+]2ccc(CCCC=C)cc2)cc1.[Cl-].[Cl-] endpoint_name=MIC endpoint_result="1.48 µg/mL"
chemical_structure=CC(C)CCc1cc[n+](CCCCCCCCCCCC[n+]2ccc(CCC(C)C)cc2)cc1.[Cl-].[Cl-] endpoint_name=MIC endpoint_result="1.48 µg/mL"
chemical_structure=CCCCCc1cc[n+](CCCCCCCCCCCC[n+]2ccc(CCCCC)c(CCCCC)c2)cc1CCCCC.[Cl-].[Cl-] endpoint_name=MIC endpoint_result="1.86 µg/mL"

* * *

Reported MIC90 by item:
Test system: Pichia kudriavzevii
Experiment: Antifungal activity against Candida krusei after 24 to 72 hrs by broth microdilution method
Assay type: functional
ENDPOINT NAME: MIC90 (µg/mL)

compound=CCCCCCc1cc[n+](CCCCCCCCCCCC[n+]2ccc(CCCCCC)cc2)cc1.[Cl-].[Cl-] endpoint_result=1.56
compound="CCC(C)n1ncn(-c2ccc(N3CCN(c4ccc(OCC5COC(Cn6cncn6)(c6ccc(Cl)cc6Cl)O5)cc4)CC3)cc2)c1=O (stereo unspecified)" endpoint_result=0.5
compound=CC[C@@H]([C@H](C)O)n1ncn(-c2ccc(N3CCN(c4ccc(OC[C@@H]5CO[C@@](Cn6cncn6)(c6ccc(F)cc6F)C5)cc4)CC3)cc2)c1=O endpoint_result=0.25
compound=OC(Cn1cncn1)(Cn1cncn1)c1ccc(F)cc1F endpoint_result=128
compound=C[C@@H]1[C@H](O)[C@@H](C)/C=C/C=C/C=C/C=C/C=C/C=C/C=C/[C@H](O[C@@H]2O[C@H](C)[C@@H](O)[C@H](N)[C@@H]2O)C[C@@H]2O[C@](O)(C[C@@H](O)C[C@@H](O)[C@H](O)CC[C@@H](O)C[C@@H](O)CC(=O)O[C@H]1C)C[C@H](O)[C@H]2C(=O)O endpoint_result=0.5
compound=CCCCCc1cc[n+](CCCCCCCCCCCC[n+]2ccc(CCCCC)c(C)c2)cc1C.[Cl-].[Cl-] endpoint_result=6.22
